Molecular target: murine anti-Fy6 monoclonal antibody 2C3 (clone name NaM185-2C3) (mouse)
Sequence (heavy, as listed by the source, chain 1 of 2): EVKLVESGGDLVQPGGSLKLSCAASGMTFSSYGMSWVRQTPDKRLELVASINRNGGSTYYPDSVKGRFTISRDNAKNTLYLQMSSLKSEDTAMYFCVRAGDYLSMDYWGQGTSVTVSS
Sequence (light, as listed by the source, chain 2 of 2): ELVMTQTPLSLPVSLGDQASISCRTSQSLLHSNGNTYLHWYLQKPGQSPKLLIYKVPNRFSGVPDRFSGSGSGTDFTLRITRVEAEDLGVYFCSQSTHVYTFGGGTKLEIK
Experiment: SPR; competition: 2C3 MAb (culture supernatant diluted 40 times) incubated 1 h at room temperature with the synthetic peptides, then injected over 2000 RU of immobilised WT ECD1-nuc (nuclease in the reference cell); RU read at 90 sec; Biacore X100, CM5, HBS-EP; the pair peptide and MAb
Square brackets hold non-standard residues; d marks the D form. Ends that are not written are not given here. sY = N[C@@H](Cc1ccc(OS(=O)(=O)O)cc1)C(=O)O
ASSAY_ENDPOINT: IC50 (nM)
Give a bare numeral; the unit nM is implied.

The reported IC50 of the binder DFEDVWNSS[sY]G [synthetic sulfated peptide …(SO3H)G (residues 21-31 of ECD1 of DARC)] was 252
